biological target: ATP-binding cassette sub-family B member 6 (Homo sapiens); test: blockers of ABCB6-driven porphyrin uptake – K562-ABCB6 cells, flow cytometry, validation set, pilot screen (AID 588550); conditions: K562-ABCB6 porphyrin accumulation, 1 h, at 10 µM, stronger effect = higher value;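 note: 0% = DMSO wells and 100% = benzethonium chloride 70 µM positive control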

compound | output.unit | inhibition
CC1=NN(c2ccccc2)C(=O)C1 | % | -1
CC(=O)NS(=O)(=O)c1ccc(N)cc1 | % | 5
CC(=O)[C@@]1(O)CC[C@H]2[C@@H]3C[C@H](C)C4=CC(=O)CC[C@]4(C)[C@H]3CC[C@@]21C | % | 13
COc1cccc(NC(=O)C2CC(=O)OC23CCOC(C)(C)C3)c1 (stereo not drawn) | % | 9
Cc1csc(N)n1 | % | 12
CNc1c2c(nn1C)CCCC2 | % | -3
O=C1CC(c2ccc(OCCCCCOc3ccc(C4CC(=O)NC4=O)cc3)cc2)C(=O)N1 (stereo not drawn) | % | 11
Cc1ccc(N2CCN(C(=S)c3ccc(-c4cccc([N+](=O)[O-])c4)o3)CC2)cc1 | % | 3
COc1cc(SC)ccc1C(=O)NC(C)C | % | 6
O=C(O)COc1ccc2occ(C(=O)c3ccccc3)c2c1 | % | 3
CN(C)CCN(Cc1ccc(Cl)cc1)c1ccccn1 | % | 8
COc1ccc(CCN(C)Cc2nc(Cc3ccc(OC)c(OC)c3)no2)cc1OC | % | 1
Cc1cccc(N2CCN(C(=S)c3ccccc3)CC2)c1 | % | 2
CCOC(=O)C1=C[C@]2(CC)CCCN3CCc4c(n1c1ccccc41)[C@@H]32 | % | 8
COc1cc2c(cc1OC)C(C)=NC1(CCCCC1)C2 | % | -52
O=C(OCC(O)C(O)COC(=O)c1ccccc1)c1ccccc1 (stereo not drawn) | % | 2
Nc1ccc(-c2nc3ncccc3o2)c(Cl)c1 | % | 6
Cc1ccccc1NC(=O)c1c(C)cc(=O)oc1C | % | -3
OCCN(Cc1nc(-c2ccc3c(c2)OCO3)no1)Cc1cccs1 | % | 6
O=C(NC(=S)Nc1ccc(N2CCN(C(=O)c3ccccc3)CC2)cc1)c1cccs1 | % | 13
CCc1cc(/C(Cc2ccccn2)=N\O)c(O)cc1O | % | 1
O=C(/C=C/c1ccco1)Nc1ccccc1C(=O)O | % | -11
Cc1ccc2c(CC(=O)O)coc2c1 | % | 13
O=C(c1ccco1)N(CCC(c1ccccc1)c1ccco1)Cc1ccco1 (stereo not drawn) | % | -3
COc1cc(OC)c2c(C)c(Cl)c(=O)oc2c1 | % | -9
COC(=O)c1[nH]c2ccc(C)cc2c1NC(=O)CN1CCc2cc(OC)c(OC)cc2C1 | % | 24
N/C(=N\OC(=O)CCCOc1ccc(Cl)cc1Cl)c1ccncc1 | % | -7
COc1ccc(CC(=O)Nc2cccc(C(=O)Nc3ccccc3C(=O)O)c2)cc1OC | % | 8
COc1ccc(C(=O)Nc2ccccc2C(=O)NC(Cc2c[nH]c3ccccc23)C(=O)O)cc1 (stereo not drawn) | % | -16
Cc1cc(C)nc(NS(=O)(=O)c2ccc(N)cc2)n1 | % | -1
CCCn1c(=O)c2[nH]c(C3CCCC3)nc2n(CCC)c1=O | % | 7
CCOC(=O)c1ccc(N2C(=O)C(CC(=O)NC)N(CCc3ccc(OC)c(OC)c3)C2=S)cc1 (stereo not drawn) | % | 4
Cc1oc2cc(O)cc(O)c2c(=O)c1-c1ccc2c(c1)OCCCO2 | % | 8
O=C(c1cc2cc(Br)ccc2o1)N1CCCC1 | % | 9
OCC1CCN(Cc2cn(Cc3ccccc3)nc2-c2cc3ccccc3o2)CC1 | % | 20
O=C(O)[C@@H](O)c1ccccc1 | % | 3
CCOc1ccc2oc(-c3ccccc3)c(C(=O)O)c2c1 | % | 9
COc1ccc(C2=CC(=O)C=CC2=O)cc1 | % | -2
c1cnc2c(c1)ccc1cccnc12 | % | 4
COc1ccc(C2NC(C(=O)O)Cc3c2[nH]c2ccccc32)cc1CN1CCN(c2ccc(F)cc2)CC1 (stereo not drawn) | % | 1
CN1CCN(C2=Nc3ccccc3Oc3ccc(Cl)cc32)CC1 | % | 14
NS(=O)(=O)c1ccc(CCNC(=O)C2CCCN2C(=O)OCc2ccccc2)cc1 (stereo not drawn) | % | 11
O=C(/C=C/c1ccccc1)NCC1(c2ccccc2)CCOCC1 | % | 3
O=C(Nc1ccc(C(=O)NC2CCCCC2)cc1)c1cccnc1 | % | 13
COC(=O)c1ccc(NC(=O)c2ccccc2SC)cc1 | % | 1
Cc1ccc(Cl)c(OCCCN(C)Cc2ccccc2)c1 | % | 19
CC[N+]1(C)CC2CCC(C)(C1)C2(C)C (stereo not drawn) | % | 7
CCc1nc2ccccc2c(NC(=O)CN2CC(C)CC(C)C2)c1C (stereo not drawn) | % | 10
